# TARGET UNDER TEST: Vasopressin V2 receptor (Homo sapiens, UniProt P30518)
# Sequence (P30518 whole entry): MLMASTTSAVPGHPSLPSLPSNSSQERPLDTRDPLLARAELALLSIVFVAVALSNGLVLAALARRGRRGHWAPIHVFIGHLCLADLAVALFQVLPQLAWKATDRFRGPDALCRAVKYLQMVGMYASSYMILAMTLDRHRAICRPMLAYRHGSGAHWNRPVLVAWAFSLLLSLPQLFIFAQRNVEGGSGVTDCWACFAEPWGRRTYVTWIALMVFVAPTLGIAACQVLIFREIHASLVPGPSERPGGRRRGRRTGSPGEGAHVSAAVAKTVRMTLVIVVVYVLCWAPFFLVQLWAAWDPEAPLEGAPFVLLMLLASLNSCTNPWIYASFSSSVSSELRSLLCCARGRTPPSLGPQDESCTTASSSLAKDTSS
# EXPERIMENT SUMMARY: Agonist activity at human V2 receptor expressed in CHO cells assessed as increase in cAMP accumulation by cAMP dynamic 2 assay
# Assay type: functional, cell-based
METRIC: log10 Kact (log10 of the value in nM)
Response schema: value (number) is log10 of Kact in units of nM.

The cases that follow already have their log10 Kact on record.
Prompt: What does the record list as log10 Kact for Cc1ccn(-c2ccc(C(=O)N3CCCC(O)c4ccccc43)c(Cl)c2)n1 (stereo unspecified) ?
Completion: 1.45

Prompt: Follow-up item: CCCCc1ccc(C(=O)N2CCCCc3ccccc32)cc1
Completion: 1.26

Prompt: Follow-up item: Cc1ccn(-c2ccc(C(=O)N3Cc4cnn(C)c4Nc4ccccc43)c(Cl)c2)n1
Completion: 0.92

Continuing:
Prompt: What does the record list as log10 Kact for CCCc1ccc(C(=O)N2CCCCc3ccccc32)cc1 ?
Completion: 1.96

Prompt: Follow-up item: Cc1ccn(-c2ccc(C(=O)N3CCCCc4ccccc43)cc2)n1
Completion: 1.11

Prompt: Follow-up item: CN(C)c1ccc(C(=O)N2CCCCc3ccccc32)cc1
Completion: 1.90

* * *

# TARGET UNDER TEST: Oxytocin receptor (Homo sapiens, UniProt P30559)
# Sequence (P30559 whole entry): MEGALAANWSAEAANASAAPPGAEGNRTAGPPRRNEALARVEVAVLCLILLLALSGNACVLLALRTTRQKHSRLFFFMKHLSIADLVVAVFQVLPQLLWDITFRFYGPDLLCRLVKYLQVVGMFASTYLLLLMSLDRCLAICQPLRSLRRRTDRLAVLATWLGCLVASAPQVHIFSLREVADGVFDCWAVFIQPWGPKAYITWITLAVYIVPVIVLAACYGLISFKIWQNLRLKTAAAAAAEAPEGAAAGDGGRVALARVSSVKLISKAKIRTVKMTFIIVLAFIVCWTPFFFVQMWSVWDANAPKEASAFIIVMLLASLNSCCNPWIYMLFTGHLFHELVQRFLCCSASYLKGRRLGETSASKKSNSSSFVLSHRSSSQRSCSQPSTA
# EXPERIMENT SUMMARY: Displacement of [3H]-AVP from human OXR receptor expressed in CHO cell membranes by radioligand binding assay
METRIC: pKi
Worth noting: pKi values are minus log10 of concentrations stated in mol/L.

Prompt: Query the reported pKi for Oxytocin receptor (Homo sapiens, UniProt P30559); item: O=C(c1ccc(-c2cccnc2)cc1)N1CCCCc2ccccc21
Completion: 6.82

Continuing:
Prompt: Query the reported pKi for Oxytocin receptor (Homo sapiens, UniProt P30559); item: O=C(c1ccc(I)cc1)N1CCCCc2ccccc21
Completion: 6.40

Prompt: Follow-up item: O=C(c1ccc(-c2ncccn2)cc1)N1CCCCc2ccccc21
Completion: 6.47

Prompt: Follow-up item: O=C(c1ccc(-c2ccccc2)cc1)N1CCCCc2ccccc21
Completion: 7.98

Prompt: Follow-up item: Cc1ccn(-c2ccc(C(=O)N3CCCC(O)c4ccccc43)c(Cl)c2)n1 (stereo not given)
Completion: 6.10

Prompt: Follow-up item: CCCc1ccc(C(=O)N2CCCCc3ccccc32)cc1
Completion: 6.98

Prompt: Follow-up item: Cc1ccn(-c2ccc(C(=O)N3CCCCc4ccccc43)cc2)n1
Completion: 7.08

Prompt: Follow-up item: CCCCc1ccc(C(=O)N2CCCCc3ccccc32)cc1
Completion: 7.43

Prompt: Follow-up item: Cc1ccn(-c2ccc(C(=O)N3CCCC(O)c4ccccc43)cc2)n1 (stereo not given)
Completion: 6.16

Prompt: Follow-up item: Cc1ccn(-c2ccc(C(=O)N3CCCC(N(C)C)c4ccccc43)cc2)n1 (stereo not given)
Completion: 5.88
